Values were extracted from PubChem BioAssay.

Test: inhibition of 3D7 malaria parasite growth – strain 3D7 (AID 2306);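 note: 0% = DMSO wells and 100% = chloroquine plus artemisinin control wells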
Settings: P. falciparum 3D7 erythrocytic growth, LDH absorbance, 72 h; at 2 µM; active compounds read high
Here, each record is paired with measured growth inhibition data.
PARAMETER_MEASURED: growth inhibition (%)

{"COMPOUND": "COc1ccc(C(=O)NCc2ccccc2-c2ccc(C(C)(C)C)cc2)cc1O", "NUMERIC_RESULT": 99}
{"COMPOUND": "COc1ccc(NC(=O)C2c3ccccc3C(=O)N(C3CCCC3)C2c2cccs2)c(OC)c1 (centres undefined)", "NUMERIC_RESULT": 84}
{"COMPOUND": "CN(c1ccccc1C(=O)Nc1cc(Cl)ccc1Oc1ccccc1)S(=O)(=O)c1ccccc1", "NUMERIC_RESULT": 99}
{"COMPOUND": "COc1ccc(C(=O)CCC(=O)N(Cc2ccc(-c3ccc(CNCCc4ccccc4)cn3)cc2)C(C)CN(C)C)cc1F (centres undefined)", "NUMERIC_RESULT": 98}
{"COMPOUND": "COc1ccc(CN2CCN(C(=O)c3cccs3)CC2)c(O)c1", "NUMERIC_RESULT": 97}
{"COMPOUND": "Cc1[nH]c(C)c(-c2ccc(-c3ccc(F)cc3)cc2)c(=O)c1Br", "NUMERIC_RESULT": 94}
{"COMPOUND": "CC(C)NC(=O)c1cccc(-c2ccc(OCCN3CCCC3c3cc4ccccc4[nH]3)cc2)c1 (centres undefined)", "NUMERIC_RESULT": 100}
{"COMPOUND": "O=C1c2ccccc2C(=O)N1c1ccc(S(=O)(=O)N2CCOCC2)cc1", "NUMERIC_RESULT": 94}
{"COMPOUND": "Cc1[nH]cnc1CSCCNC(=NCCCCCCCCN=C(NC#N)NCCSCc1nc[nH]c1C)NC#N", "NUMERIC_RESULT": 81}

---

Biological target: L-lactate dehydrogenase (Plasmodium falciparum (isolate CDC / Honduras))
Experiment: PfLDH activity inhibition – cell lysate, 3D7 strain, counter-screen for P. falciparum growth inhibition project (AID 2304);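 note: 0% = vehicle and 100% = reference inhibitor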
Conditions: P. falciparum 3D7 crude extract, LDH APAD/NBT absorbance; at 2 µM; active compounds read high
Here, each record is paired with measured inhibition data.

{"MOLECULE": "O=C(Nc1ccc(S(=O)(=O)N2CCOCC2)cc1)c1cc(-c2cc(Cl)ccc2O)n[nH]1", "SUBJECT_OF_TEST": "L-lactate dehydrogenase (Plasmodium falciparum (isolate CDC / Honduras))", "inhibition (%)": -3}
{"MOLECULE": "CCN(CC)CCOc1ccc(NC(=O)c2oc3ccccc3c2C=Cc2ccccc2)cc1", "SUBJECT_OF_TEST": "L-lactate dehydrogenase (Plasmodium falciparum (isolate CDC / Honduras))", "inhibition (%)": -2}
{"MOLECULE": "COc1cc(NC(=O)N2CCOC(CCN3CCC4(CCc5ccccc54)CC3)(c3ccc(Cl)c(Cl)c3)C2)cc(OC)c1OC (stereo not drawn)", "SUBJECT_OF_TEST": "L-lactate dehydrogenase (Plasmodium falciparum (isolate CDC / Honduras))", "inhibition (%)": -4}
{"MOLECULE": "CC(C)NCc1ccc(-c2cccc(NC(=O)c3cccc(C#N)c3)c2)cc1", "SUBJECT_OF_TEST": "L-lactate dehydrogenase (Plasmodium falciparum (isolate CDC / Honduras))", "inhibition (%)": -6}
{"MOLECULE": "Cc1[nH]c2ccc(C#N)cc2c(=O)c1Br", "SUBJECT_OF_TEST": "L-lactate dehydrogenase (Plasmodium falciparum (isolate CDC / Honduras))", "inhibition (%)": -1}
{"MOLECULE": "Cc1cc(Nc2ccc(Cl)cc2)n2nc(C(F)(F)F)nc2n1", "SUBJECT_OF_TEST": "L-lactate dehydrogenase (Plasmodium falciparum (isolate CDC / Honduras))", "inhibition (%)": -1}
{"MOLECULE": "COc1cc(-c2nc(-c3ccccc3)c(-c3ccc([N+](=O)[O-])cc3)[nH]2)cc(OC)c1O", "SUBJECT_OF_TEST": "L-lactate dehydrogenase (Plasmodium falciparum (isolate CDC / Honduras))", "inhibition (%)": -3}
{"MOLECULE": "CC(=O)Oc1c(C2CCN(CCCCNC(=O)c3ccc(NC(=O)c4ccc(Cl)cc4)cc3)CC2)ccc2ccccc12", "SUBJECT_OF_TEST": "L-lactate dehydrogenase (Plasmodium falciparum (isolate CDC / Honduras))", "inhibition (%)": -6}
{"MOLECULE": "COc1cccc(C(=O)Nc2ccc(Nc3nc(C)cc(N(C)C)n3)cc2)c1", "SUBJECT_OF_TEST": "L-lactate dehydrogenase (Plasmodium falciparum (isolate CDC / Honduras))", "inhibition (%)": -2}
{"MOLECULE": "O=C(/C=C/c1ccc(Cl)c(Cl)c1)NCCCCCN1CCC(NC(=O)c2ccc(F)cc2F)CC1", "SUBJECT_OF_TEST": "L-lactate dehydrogenase (Plasmodium falciparum (isolate CDC / Honduras))", "inhibition (%)": -3}
{"MOLECULE": "CN(C)Cc1ccc(-c2ccc3c(Nc4ccc(Oc5ccccc5)cc4)ccnc3c2)o1", "SUBJECT_OF_TEST": "L-lactate dehydrogenase (Plasmodium falciparum (isolate CDC / Honduras))", "inhibition (%)": 2}
{"MOLECULE": "O=C(NCc1ccco1)c1ccc(S(=O)(=O)c2ccc(Cl)cc2)cc1", "SUBJECT_OF_TEST": "L-lactate dehydrogenase (Plasmodium falciparum (isolate CDC / Honduras))", "inhibition (%)": -3}
{"MOLECULE": "Cc1cc(N2CCN(CC3CCCCC3)CC2)nc(Nc2ccc(Br)cc2)n1", "SUBJECT_OF_TEST": "L-lactate dehydrogenase (Plasmodium falciparum (isolate CDC / Honduras))", "inhibition (%)": -6}
{"MOLECULE": "CC(=O)Nc1ncc(C(=O)Nc2cccc(-c3cccc(-c4nc5ccc(C(F)(F)F)cc5[nH]4)c3)c2)s1", "SUBJECT_OF_TEST": "L-lactate dehydrogenase (Plasmodium falciparum (isolate CDC / Honduras))", "inhibition (%)": 3}
{"MOLECULE": "CCCCCc1cc(OCCN(C)C)cc2c1C(=O)CC(C)(C)O2", "SUBJECT_OF_TEST": "L-lactate dehydrogenase (Plasmodium falciparum (isolate CDC / Honduras))", "inhibition (%)": 6}
{"MOLECULE": "COc1ccc(NC(=O)c2ccc(Br)c(C)c2)cc1N1CCN(Cc2ccccc2)CC1", "SUBJECT_OF_TEST": "L-lactate dehydrogenase (Plasmodium falciparum (isolate CDC / Honduras))", "inhibition (%)": 0}
{"MOLECULE": "COc1ccc2nccc([C@@H](O)CN3CCC(NCc4cc5cccc6c5n(c4=O)CCC6)CC3)c2c1", "SUBJECT_OF_TEST": "L-lactate dehydrogenase (Plasmodium falciparum (isolate CDC / Honduras))", "inhibition (%)": 1}
{"MOLECULE": "Cc1ccc(NC(=O)c2ccc(N3CCN(c4ccncc4)CC3)cc2)cc1F", "SUBJECT_OF_TEST": "L-lactate dehydrogenase (Plasmodium falciparum (isolate CDC / Honduras))", "inhibition (%)": -1}
{"MOLECULE": "Cc1cc(N[C@@H](Cc2ccccc2)C(=O)NCc2cccs2)nc(NCCOc2ccccc2)n1", "SUBJECT_OF_TEST": "L-lactate dehydrogenase (Plasmodium falciparum (isolate CDC / Honduras))", "inhibition (%)": -3}
{"MOLECULE": "COc1ccc2nccc([C@@H](O)CN3CCC(NCc4ccc5c(c4)NC(=O)C(C)(C)O5)CC3)c2c1", "SUBJECT_OF_TEST": "L-lactate dehydrogenase (Plasmodium falciparum (isolate CDC / Honduras))", "inhibition (%)": 3}
{"MOLECULE": "Fc1cccc(COc2ccc(-n3ccc4c(NCCCn5ccnc5)ncnc43)cc2Cl)n1", "SUBJECT_OF_TEST": "L-lactate dehydrogenase (Plasmodium falciparum (isolate CDC / Honduras))", "inhibition (%)": -2}
{"MOLECULE": "COc1ccc(C(=O)CCC(=O)N(Cc2ccc(-c3ccc(CNCCc4ccccc4)cn3)cc2)C(C)CN(C)C)cc1F (stereo not drawn)", "SUBJECT_OF_TEST": "L-lactate dehydrogenase (Plasmodium falciparum (isolate CDC / Honduras))", "inhibition (%)": -4}
{"MOLECULE": "Nc1nc(N)c2cc(N(Cc3ccccc3)Cc3ccccc3)ccc2n1", "SUBJECT_OF_TEST": "L-lactate dehydrogenase (Plasmodium falciparum (isolate CDC / Honduras))", "inhibition (%)": 3}
{"MOLECULE": "CCN(CC)CCN(Cc1ccc(-c2ccc(C(F)(F)F)cc2)cc1)C(=O)Cn1c(CCc2cc(F)c(F)c(F)c2)nc(=O)c2ccccc21", "SUBJECT_OF_TEST": "L-lactate dehydrogenase (Plasmodium falciparum (isolate CDC / Honduras))", "inhibition (%)": -4}
{"MOLECULE": "CCOc1cc(C(=O)NC2CC(C)(C)N(C)C(C)(C)C2)ccc1-c1nc2cc(Cl)c(Cl)cc2[nH]1", "SUBJECT_OF_TEST": "L-lactate dehydrogenase (Plasmodium falciparum (isolate CDC / Honduras))", "inhibition (%)": 4}
{"MOLECULE": "CCc1sc(N2CCC(C)CC2)nc1C(=O)Nc1ccc(F)cc1C(F)(F)F", "SUBJECT_OF_TEST": "L-lactate dehydrogenase (Plasmodium falciparum (isolate CDC / Honduras))", "inhibition (%)": 2}
{"MOLECULE": "Cc1nc(-c2nc(NCCc3c(C)noc3C)ncc2-c2ccsc2)sc1C", "SUBJECT_OF_TEST": "L-lactate dehydrogenase (Plasmodium falciparum (isolate CDC / Honduras))", "inhibition (%)": -2}
{"MOLECULE": "Cc1cc(N(CCCN(C)C)Cc2cc(F)cc(F)c2)nc(Nc2ccc(Cl)cc2)n1", "SUBJECT_OF_TEST": "L-lactate dehydrogenase (Plasmodium falciparum (isolate CDC / Honduras))", "inhibition (%)": -2}
{"MOLECULE": "Cc1ccc(-c2nnc(-c3ccc(C(=O)NC4CCN(Cc5ccc(C#N)cc5)CC4)cc3)o2)cc1Br", "SUBJECT_OF_TEST": "L-lactate dehydrogenase (Plasmodium falciparum (isolate CDC / Honduras))", "inhibition (%)": -5}
{"MOLECULE": "COc1cncc(/C=C/c2cncc(C(=O)NCCc3ccc(Cl)cc3Cl)c2)c1", "SUBJECT_OF_TEST": "L-lactate dehydrogenase (Plasmodium falciparum (isolate CDC / Honduras))", "inhibition (%)": -9}
{"MOLECULE": "Cc1cc(NCC2CCN(CC3CCCCC3)C2)nc(Nc2ccc(Cl)cc2)n1 (stereo not drawn)", "SUBJECT_OF_TEST": "L-lactate dehydrogenase (Plasmodium falciparum (isolate CDC / Honduras))", "inhibition (%)": -3}
{"MOLECULE": "O=C(Cn1c(CCc2cccc(F)c2F)cc(=O)c2cccnc21)N(CCN1CCCC1)Cc1ccc(-c2ccc(C(F)(F)F)cc2)cc1", "SUBJECT_OF_TEST": "L-lactate dehydrogenase (Plasmodium falciparum (isolate CDC / Honduras))", "inhibition (%)": -3}
{"MOLECULE": "Cc1cc(N[C@@H](CC(C)C)C(=O)NC2CCCC2)nc(NCc2ccccc2C)n1", "SUBJECT_OF_TEST": "L-lactate dehydrogenase (Plasmodium falciparum (isolate CDC / Honduras))", "inhibition (%)": -3}
{"MOLECULE": "CC(=O)N[C@H](C(=O)Nc1ccc(-c2cccc(-c3nc4c(C)cccc4[nH]3)c2)cc1)C(C)C", "SUBJECT_OF_TEST": "L-lactate dehydrogenase (Plasmodium falciparum (isolate CDC / Honduras))", "inhibition (%)": 2}
{"MOLECULE": "COc1cc(Nc2ccnc3ccc(C(F)(F)F)cc23)cc(OC)c1OC", "SUBJECT_OF_TEST": "L-lactate dehydrogenase (Plasmodium falciparum (isolate CDC / Honduras))", "inhibition (%)": 1}
{"MOLECULE": "Clc1cc(Cl)c2cc(CN[C@H]3CCC[C@@H]3CNc3nc4ccccc4[nH]3)[nH]c2c1", "SUBJECT_OF_TEST": "L-lactate dehydrogenase (Plasmodium falciparum (isolate CDC / Honduras))", "inhibition (%)": -1}
{"MOLECULE": "Oc1ccc(CCNc2nc(NCc3ccc4cc(Cl)ccc4c3)nc(N3CCNCC3)n2)cc1", "SUBJECT_OF_TEST": "L-lactate dehydrogenase (Plasmodium falciparum (isolate CDC / Honduras))", "inhibition (%)": -3}
{"MOLECULE": "O=C(c1csc(-c2cccnc2)n1)N1CCc2cc3nccc(N4CCN5CCC[C@H]5C4)c3cc21", "SUBJECT_OF_TEST": "L-lactate dehydrogenase (Plasmodium falciparum (isolate CDC / Honduras))", "inhibition (%)": -3}
